system: OVCAR-4; assay: NCI tumour cell line growth inhibition, 48 h
Activity calls are given as the source filed them. No stated cut-off is given here; in the data, active = GI50 up to about 1.1 µM and inactive = higher.
Labels: 1 = active, 0 = inactive

molecule=CC1=C(NC(=O)C(=O)NNC(=O)c2ccncc2)C(=O)c2ccccc2C1=O targetofassay=OVCAR-4 grouplabel=0
molecule="Cc1ccc(C2(C)CC/C(=N/N=C3/CCC(C)(c4ccc(C)c(C)c4)c4cc(C)c(C)cc43)c3cc(C)c(C)cc32)cc1C (stereo not drawn)" targetofassay=OVCAR-4 grouplabel=0
molecule="COC(=O)[C@@]12OC[C@]34C([C@@H](O)C1O)[C@@]1(C)CC(=O)C(O)=C(C)C1C[C@H]3OC(=O)[C@H](OC(=O)/C=C(/c1ccccc1)C(F)(F)F)[C@H]42 (stereo partly drawn)" targetofassay=OVCAR-4 grouplabel=0
molecule=N#C/C(=C/c1ccc[nH]1)P(=O)(O)O targetofassay=OVCAR-4 grouplabel=0
molecule=CC1=C2C=CC(=O)C[C@@]2(C)CCC1 targetofassay=OVCAR-4 grouplabel=0
molecule=CC(=O)O[C@H]1CC[C@H]2[C@@H]3CCC4=C/C(=N/OCCN(C)C)CC[C@]4(C)[C@H]3CC[C@]12C targetofassay=OVCAR-4 grouplabel=0
molecule="C=C1CC(C)(COc2ccc3ccc(=O)oc3c2)OC1=O (stereo not drawn)" targetofassay=OVCAR-4 grouplabel=0
molecule=C[C@@H]1C[C@H](O)[C@]2(O)O[C@@H]3C[C@@]4(C=O)[C@@H](CC[C@@H]5[C@@H]4CC[C@]4(C)[C@@H](C6=CC(=O)OC6)CC[C@]54O)C[C@H]3O[C@@H]2O1 targetofassay=OVCAR-4 grouplabel=1
